ASSAY: Oral bioavailability in rat at 1 mg/kg
Type: ADME, organism-based
TEST_CONTEXT: in vivo
ENDPOINT_LABEL: bioavailability (%)
Respond numerically; units are % and should not be typed.

C[C@@H]1Cc2c(ccc3[nH]ncc23)[C@@H](c2ccc(NC3CN(CCCF)C3)c(F)n2)N1CC(F)(F)F; 34

Now for another entry.
Notebook: C[C@@H]1Cc2c(ccc3[nH]nc(F)c23)[C@@H](c2ncc(NC3CN(CCCF)C3)cc2F)N1CC(F)(F)F , bioavailability read as 60

---

Reported microsomal CLint values for a set of molecules
ASSAY: Intrinsic clearance in human microsome assessed as rate of metabolism
Format: ADME
TEST_CONTEXT: microsomes
Respond numerically; units are µL/min/mg and should not be typed.

Use these answered entries as a reference point.
C[C@@H]1Cc2c(ccc3[nH]ncc23)[C@@H](c2ccc(NC3CN(CCCF)C3)cn2)N1CC(F)(F)F; 12
COc1cc2[nH]ncc2c2c1[C@@H](c1ccc(NC3CN(CCCF)C3)cn1)N(CC(F)(F)F)[C@H](C)C2; 26
C[C@@H]1Cc2c(c(O)cc3[nH]ncc23)[C@@H](c2ccc(NC3CN(CCCF)C3)cn2)N1CC(F)(F)F; 5

Notebook: C[C@@H]1Cc2c(c(F)cc3[nH]ncc23)[C@@H](c2ccc(NC3CN(CCCF)C3)cn2)N1CC(F)(F)F , microsomal CLint read as 8

Notebook: C[C@@H]1Cc2c(ccc3[nH]nc(F)c23)[C@@H](c2ccc(NC3CN(CCCF)C3)c(F)n2)N1CC(F)(F)F , microsomal CLint read as 44

Notebook: C[C@@H]1Cc2c(ccc3[nH]nc(F)c23)[C@@H](c2ncc(NC3CN(CCCF)C3)cc2F)N1CC(F)(F)F , microsomal CLint read as 34

---

Reported half-life values for a set of molecules
ASSAY: Half-life in rat at 0.5 mg/kg, iv
Type: ADME, organism-based
TEST_CONTEXT: in vivo

C[C@@H]1Cc2c(ccc3[nH]ncc23)[C@@H](c2ccc(NC3CN(CCCF)C3)c(F)n2)N1CC(F)(F)F; 1.9 h

Now for another entry.
Notebook: C[C@@H]1Cc2c(ccc3[nH]nc(F)c23)[C@@H](c2ncc(NC3CN(CCCF)C3)cc2F)N1CC(F)(F)F , half-life read as 9.6 h

---

ASSAY_SYSTEM: Estrogen receptor (Homo sapiens)
Sequence (P03372 whole entry): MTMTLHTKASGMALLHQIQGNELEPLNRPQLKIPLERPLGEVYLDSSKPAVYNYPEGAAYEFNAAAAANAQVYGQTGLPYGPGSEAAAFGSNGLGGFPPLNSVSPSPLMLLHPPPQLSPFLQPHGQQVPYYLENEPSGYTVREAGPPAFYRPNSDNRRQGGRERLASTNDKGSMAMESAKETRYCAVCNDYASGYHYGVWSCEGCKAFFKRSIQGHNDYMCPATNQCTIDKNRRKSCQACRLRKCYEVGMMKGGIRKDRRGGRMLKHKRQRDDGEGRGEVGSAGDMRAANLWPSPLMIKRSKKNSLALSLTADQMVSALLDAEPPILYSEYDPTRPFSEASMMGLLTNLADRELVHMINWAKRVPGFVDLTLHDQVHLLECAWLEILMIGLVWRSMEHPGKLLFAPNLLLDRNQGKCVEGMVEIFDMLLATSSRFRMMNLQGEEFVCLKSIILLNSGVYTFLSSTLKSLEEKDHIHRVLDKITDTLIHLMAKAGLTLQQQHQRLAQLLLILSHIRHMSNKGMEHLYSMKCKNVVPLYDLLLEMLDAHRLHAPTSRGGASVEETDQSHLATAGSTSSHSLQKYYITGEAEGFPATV
ASSAY: Induction of ERalpha degradation in human MCF7 cells incubated for 18 to 22 hrs by immuno-fluorescence assay
Type: cell-based
Friendly reminder: IC50 below 0.3 nM is Fulfilled, at or above is Not fulfilled.

Observe how each entry below is paired with its result.
C[C@@H]1Cc2c(c(O)cc3[nH]ncc23)[C@@H](c2ccc(NC3CN(CCCF)C3)cn2)N1CC(F)(F)F; Not fulfilled
COc1cc2[nH]ncc2c2c1[C@@H](c1ccc(NC3CN(CCCF)C3)cn1)N(CC(F)(F)F)[C@H](C)C2; Not fulfilled
C[C@@H]1Cc2c(ccc3[nH]nc(F)c23)[C@@H](c2ccc(NC3CN(CCCF)C3)c(F)n2)N1CC(F)(F)F; Fulfilled

Consider the molecule C[C@@H]1Cc2c(ccc3[nH]ncc23)[C@@H](c2ncc(NC3CN(CCCF)C3)cc2F)N1CC(F)(F)F . Is its IC50 strictly less than 0.3 nM?
Fulfilled

Consider the molecule C[C@@H]1Cc2c(c(F)cc3[nH]ncc23)[C@@H](c2ccc(NC3CN(CCCF)C3)cn2)N1CC(F)(F)F . Is its IC50 strictly less than 0.3 nM?
Not fulfilled

Consider the molecule C[C@@H]1Cc2c(cc(F)c3[nH]ncc23)[C@@H](c2ccc(NC3CN(CCCF)C3)cn2)N1CC(F)(F)F . Is its IC50 strictly less than 0.3 nM?
Fulfilled
